test system: OCI-Ly3; test: Antiproliferative activity against human OCILY3 cells by cell proliferation assay; type: functional, cell-based
pEC50: −log10 of the molar value.
MEASURED ATTRIBUTE: pEC50

CO[C@@H](C)c1c(NC(=O)Nc2cnc(-n3nccn3)c(Cl)c2)cnc2cc(Cl)nn12
6.92
Cc1c(NC(=O)Nc2cnc(-n3nccn3)c(Cl)c2)cnc2ccc(Br)cc12
4.89
Cc1nc2c(C3CC3)c(NC(=O)Nc3cnc(-n4nccn4)c(Cl)c3)cnc2s1
5.87

A: COC(C)c1c(NC(=O)Nc2cnc(-n3nccn3)c(Cl)c2)cnc2sc(C)nc12 (stereo not given)
B: CCOC(C)c1c(NC(=O)Nc2cnc(-n3nccn3)c(Cl)c2)cnc2ccccc12 (stereo not given)
Exam item: Rank A against B by their pEC50 values and give the higher one. State your choice using its label.
Marked response: A
(A: 6.14, B: 5.82)
